- assay-details: Volume of distribution at steady state in rat at 0.31 mg/kg, iv and 0.62 mg/kg, po
- Format: ADME, organism-based
- measurement-context: in vivo, read-out: Vdss
measured-endpoint: Vd (L/kg)
Quick note: give the figure in L/kg, leave out the unit.

// query Please give the measured Vd for this compound: CN([C@H]1CCOC1)S(=O)(=O)Nc1ccc2ccc3ncc(-c4cnn(C)c4)cc3c(=O)c2c1
// result 1.1

====

- assay-details: Plasma clearance in mouse at 1 mg/kg, iv
- Type: ADME, organism-based
- Design: dose 1 mg/kg, route intravenous
measured-endpoint: clearance (mL/min/kg)
Quick note: give the figure in mL/min/kg, leave out the unit.

// query Please give the measured clearance for this compound: CN(C[C@@H]1COCCO1)S(=O)(=O)Nc1ccc2ccc3ncc(-c4cnn(C)c4)cc3c(=O)c2c1 [MK-2461]
// result 83

====

measured-endpoint: pIC50
Convention used: pIC50 is expressed as -log10 of the molar concentration.

// query Lab request: please report pIC50 under test system Fibroblast growth factor receptor 2 (Homo sapiens, UniProt P21802) for CN(C[C@@H]1COCCO1)S(=O)(=O)Nc1ccc2ccc3ncc(-c4cnn(C)c4)cc3c(=O)c2c1
// result 7.41

====

measured-endpoint: IC50 (nM)
Quick note: give the figure in nM, leave out the unit.

// query Lab request: please report IC50 under test system Vascular endothelial growth factor receptor 2 (Homo sapiens, UniProt P35968) for CN(C[C@@H]1COCCO1)S(=O)(=O)Nc1ccc2ccc3ncc(-c4cnn(C)c4)cc3c(=O)c2c1
// result 44

====

measured-endpoint: IC50
Hi, when you answer, please include the unit after the number. Thanks!

// query Lab request: please report IC50 under test system Cytochrome P450 2C9 (Homo sapiens, UniProt P11712) for CN(C[C@@H]1COCCO1)S(=O)(=O)Nc1ccc2ccc3ncc(-c4cnn(C)c4)cc3c(=O)c2c1
// result 1.2 µM

====

- assay-details: Plasma clearance in rat at 0.31 mg/kg, iv and 0.62 mg/kg, po
- Assay type: ADME, organism-based
measured-endpoint: clearance (L/h/kg)
Quick note: give the figure in L/h/kg, leave out the unit.

// query Please give the measured clearance for this compound: CN([C@H]1CCOC1)S(=O)(=O)Nc1ccc2ccc3ncc(-c4cnn(C)c4)cc3c(=O)c2c1
// result 0.66

====

- target-system: Fibroblast growth factor receptor 3 (Homo sapiens)
- Sequence (P22607 whole entry): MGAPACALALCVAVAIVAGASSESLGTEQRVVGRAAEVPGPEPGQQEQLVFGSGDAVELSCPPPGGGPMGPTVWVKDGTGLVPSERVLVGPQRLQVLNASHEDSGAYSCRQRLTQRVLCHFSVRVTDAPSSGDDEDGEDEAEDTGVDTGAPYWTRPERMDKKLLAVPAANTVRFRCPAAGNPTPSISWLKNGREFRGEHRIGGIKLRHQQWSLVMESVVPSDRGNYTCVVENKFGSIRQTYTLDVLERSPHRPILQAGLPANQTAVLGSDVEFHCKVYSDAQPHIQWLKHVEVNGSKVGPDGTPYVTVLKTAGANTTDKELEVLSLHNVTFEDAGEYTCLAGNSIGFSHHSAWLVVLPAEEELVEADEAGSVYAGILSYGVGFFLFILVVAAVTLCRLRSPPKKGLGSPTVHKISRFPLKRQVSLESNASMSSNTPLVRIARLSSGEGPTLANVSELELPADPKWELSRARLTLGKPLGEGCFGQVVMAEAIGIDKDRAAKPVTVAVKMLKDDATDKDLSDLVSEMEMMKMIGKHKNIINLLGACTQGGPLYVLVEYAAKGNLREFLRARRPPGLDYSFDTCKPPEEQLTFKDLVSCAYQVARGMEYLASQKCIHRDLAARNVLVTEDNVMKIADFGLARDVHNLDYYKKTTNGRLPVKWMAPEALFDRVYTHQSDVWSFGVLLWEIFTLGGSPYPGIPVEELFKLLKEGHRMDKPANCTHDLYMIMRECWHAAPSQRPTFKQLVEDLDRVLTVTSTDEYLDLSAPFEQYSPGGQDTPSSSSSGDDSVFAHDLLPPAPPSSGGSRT
- assay-details: Inhibition of human FGFR3
measured-endpoint: IC50
Hi, when you answer, please include the unit after the number. Thanks!

// query Please give the measured IC50 for this molecule: CN(C[C@@H]1COCCO1)S(=O)(=O)Nc1ccc2ccc3ncc(-c4cnn(C)c4)cc3c(=O)c2c1 [MK-2461]
// result 50 nM

====

- target-system: Hepatocyte growth factor receptor (Homo sapiens, UniProt P08581)
- Sequence (P08581 whole entry, the tested form may be a part): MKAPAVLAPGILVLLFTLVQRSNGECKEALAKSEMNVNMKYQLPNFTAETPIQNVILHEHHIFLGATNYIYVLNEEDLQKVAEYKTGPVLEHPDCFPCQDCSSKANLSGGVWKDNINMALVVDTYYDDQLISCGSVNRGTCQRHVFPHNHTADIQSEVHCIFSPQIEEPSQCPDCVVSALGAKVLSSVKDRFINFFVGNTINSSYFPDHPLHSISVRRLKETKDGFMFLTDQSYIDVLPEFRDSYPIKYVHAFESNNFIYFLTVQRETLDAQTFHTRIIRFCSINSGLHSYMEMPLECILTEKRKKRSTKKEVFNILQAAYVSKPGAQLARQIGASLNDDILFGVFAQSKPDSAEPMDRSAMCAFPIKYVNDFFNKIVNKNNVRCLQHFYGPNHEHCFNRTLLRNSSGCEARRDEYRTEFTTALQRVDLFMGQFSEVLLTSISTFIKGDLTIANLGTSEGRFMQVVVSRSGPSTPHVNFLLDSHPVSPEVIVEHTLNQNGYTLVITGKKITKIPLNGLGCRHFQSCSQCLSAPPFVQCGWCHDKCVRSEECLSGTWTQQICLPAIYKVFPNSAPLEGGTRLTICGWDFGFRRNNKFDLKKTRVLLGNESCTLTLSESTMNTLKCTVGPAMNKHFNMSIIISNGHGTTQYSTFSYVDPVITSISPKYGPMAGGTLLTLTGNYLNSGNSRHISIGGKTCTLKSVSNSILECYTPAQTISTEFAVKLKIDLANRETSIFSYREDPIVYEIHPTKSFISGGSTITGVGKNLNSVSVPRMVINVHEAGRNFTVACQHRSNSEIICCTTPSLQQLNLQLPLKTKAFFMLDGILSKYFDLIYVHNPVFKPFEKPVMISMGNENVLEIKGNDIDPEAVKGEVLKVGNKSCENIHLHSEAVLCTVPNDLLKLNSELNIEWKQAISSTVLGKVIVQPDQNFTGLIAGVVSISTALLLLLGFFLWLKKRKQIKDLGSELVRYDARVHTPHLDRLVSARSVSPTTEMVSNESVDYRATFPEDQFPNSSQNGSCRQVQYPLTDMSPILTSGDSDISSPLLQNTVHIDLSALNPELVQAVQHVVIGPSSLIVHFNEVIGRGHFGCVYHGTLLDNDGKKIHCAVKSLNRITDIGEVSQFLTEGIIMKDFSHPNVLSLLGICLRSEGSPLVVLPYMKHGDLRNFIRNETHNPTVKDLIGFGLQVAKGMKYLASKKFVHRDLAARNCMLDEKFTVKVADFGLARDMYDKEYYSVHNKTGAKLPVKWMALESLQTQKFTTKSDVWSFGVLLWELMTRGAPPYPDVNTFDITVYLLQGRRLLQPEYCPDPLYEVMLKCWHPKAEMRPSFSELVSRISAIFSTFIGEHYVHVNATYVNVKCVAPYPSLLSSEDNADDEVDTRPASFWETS
- assay-details: Inhibition of recombinant human c-MET phosphorylation at C-terminal Y1365
measured-endpoint: IC50 (nM)
Quick note: give the figure in nM, leave out the unit.

// query Lab request: please report IC50 under test system Hepatocyte growth factor receptor (Homo sapiens, UniProt P08581) for CN(C[C@@H]1COCCO1)S(=O)(=O)Nc1ccc2ccc3ncc(-c4cnn(C)c4)cc3c(=O)c2c1
// result 26

====

- target-system: Hepatocyte growth factor receptor (Homo sapiens, UniProt P08581)
- assay-details: Inhibition of recombinant human c-MET phosphorylation at C-terminal Y1234
measured-endpoint: pIC50
Convention used: pIC50 is expressed as -log10 of the molar concentration.

// query Please give the measured pIC50 for this compound: CN(C[C@@H]1COCCO1)S(=O)(=O)Nc1ccc2ccc3ncc(-c4cnn(C)c4)cc3c(=O)c2c1
// result 6.05

====

measured-endpoint: IC50

// query Lab request: please report IC50 under test system Tyrosine-protein kinase ABL1 (Homo sapiens, UniProt P00519) for CN(C[C@@H]1COCCO1)S(=O)(=O)Nc1ccc2ccc3ncc(-c4cnn(C)c4)cc3c(=O)c2c1 [MK-2461]
// result 7.8 µM

====

- assay-details: Cmax in mouse at 2 mg/kg, po
- Assay type: ADME, organism-based
- Parameters: dose 2 mg/kg, route oral
- measurement-context: in vivo
measured-endpoint: Cmax (nM)
Quick note: give the figure in nM, leave out the unit.

// query Please give the measured Cmax for this compound: CN(C[C@@H]1COCCO1)S(=O)(=O)Nc1ccc2ccc3ncc(-c4cnn(C)c4)cc3c(=O)c2c1
// result 410

====

- assay-details: Tmax in dog at 2 mg/kg, po
- Assay type: ADME, organism-based, Canis lupus familiaris
- Set-up: dose 2 mg/kg, route oral
- measurement-context: in vivo
measured-endpoint: Tmax (h)
Quick note: give the figure in h, leave out the unit.

// query Please give the measured Tmax for this compound: CN(C[C@@H]1COCCO1)S(=O)(=O)Nc1ccc2ccc3ncc(-c4cnn(C)c4)cc3c(=O)c2c1
// result 1.4

====

- assay-details: Tmax in monkey at 0.5 mg/kg, po
- Type: ADME, organism-based, Macaca mulatta
- Design: dose 0.5 mg/kg, route oral
- measurement-context: rhesus monkey, in vivo
measured-endpoint: Tmax (h)
Quick note: give the figure in h, leave out the unit.

// query Please give the measured Tmax for this molecule: CN(C[C@@H]1COCCO1)S(=O)(=O)Nc1ccc2ccc3ncc(-c4cnn(C)c4)cc3c(=O)c2c1
// result 3

====

- target-system: Hepatocyte growth factor receptor (Homo sapiens)
- assay-details: Binding affinity to human recombinant His6-tagged phosphorylated c-Met cytosolic domain
measured-endpoint: Kd (nM)
Quick note: give the figure in nM, leave out the unit.

// query Please give the measured Kd for this molecule: CN(C[C@@H]1COCCO1)S(=O)(=O)Nc1ccc2ccc3ncc(-c4cnn(C)c4)cc3c(=O)c2c1
// result 4

====

- target-system: Platelet-derived growth factor receptor alpha (Homo sapiens, UniProt P16234)
- Sequence (P16234 whole entry): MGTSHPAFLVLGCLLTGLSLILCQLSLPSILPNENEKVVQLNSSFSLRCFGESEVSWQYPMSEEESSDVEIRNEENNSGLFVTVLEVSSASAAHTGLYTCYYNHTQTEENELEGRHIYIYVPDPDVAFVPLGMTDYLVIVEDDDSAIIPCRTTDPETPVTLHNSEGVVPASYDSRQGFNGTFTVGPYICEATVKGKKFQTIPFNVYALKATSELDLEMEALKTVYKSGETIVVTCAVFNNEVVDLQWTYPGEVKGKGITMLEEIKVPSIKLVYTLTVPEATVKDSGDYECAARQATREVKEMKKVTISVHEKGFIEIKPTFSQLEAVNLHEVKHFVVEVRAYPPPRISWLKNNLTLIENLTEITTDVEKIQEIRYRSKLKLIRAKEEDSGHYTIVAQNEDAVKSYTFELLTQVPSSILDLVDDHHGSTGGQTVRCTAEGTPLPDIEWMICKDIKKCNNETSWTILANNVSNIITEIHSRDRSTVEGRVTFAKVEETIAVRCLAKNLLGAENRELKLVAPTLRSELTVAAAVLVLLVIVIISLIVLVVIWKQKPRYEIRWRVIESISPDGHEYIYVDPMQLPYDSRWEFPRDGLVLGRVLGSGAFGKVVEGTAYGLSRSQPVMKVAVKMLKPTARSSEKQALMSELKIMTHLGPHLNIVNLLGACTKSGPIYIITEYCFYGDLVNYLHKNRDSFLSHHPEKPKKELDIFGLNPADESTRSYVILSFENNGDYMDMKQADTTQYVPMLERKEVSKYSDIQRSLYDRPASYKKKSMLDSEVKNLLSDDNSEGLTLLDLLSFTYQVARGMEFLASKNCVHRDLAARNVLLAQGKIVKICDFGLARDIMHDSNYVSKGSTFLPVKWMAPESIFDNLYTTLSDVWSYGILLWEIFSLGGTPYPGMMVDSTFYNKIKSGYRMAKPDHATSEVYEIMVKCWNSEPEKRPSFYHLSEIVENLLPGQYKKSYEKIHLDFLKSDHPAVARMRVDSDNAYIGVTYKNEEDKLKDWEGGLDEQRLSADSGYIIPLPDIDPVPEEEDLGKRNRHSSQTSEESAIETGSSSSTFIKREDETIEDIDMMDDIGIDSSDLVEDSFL
measured-endpoint: IC50

// query Please give the measured IC50 for this compound: CN(C[C@@H]1COCCO1)S(=O)(=O)Nc1ccc2ccc3ncc(-c4cnn(C)c4)cc3c(=O)c2c1
// result < 0.1 µM

====

Could you please report measured pIC50 for the items listed next?
- target-system: Hepatocyte growth factor receptor (Homo sapiens)
- assay-details: Inhibition of c-MET overexpressed in human GTL-16 cells assessed as phosphorylation at C-terminal Y1349 after 2 hrs by Western blot analysis
- Type: cell-based
Convention used: pIC50 is expressed as -log10 of the molar concentration.

// query Please give the measured pIC50 for this compound: CN(C[C@H]1COCCO1)S(=O)(=O)Nc1ccc2ccc3ncc(-c4cnn(C)c4)cc3c(=O)c2c1
// result 6.68

// query Please give the measured pIC50 for this compound: CN(C[C@@H]1COCCO1)S(=O)(=O)Nc1ccc2ccc3ncc(-c4cnn(C)c4)cc3c(=O)c2c1 [MK-2461]
// result 7.25

====

- target-system: Hepatocyte growth factor receptor (Homo sapiens)
- assay-details: Inhibition of c-MET overexpressed in human GTL-16 cells assessed as phosphorylation at C-terminal Y1365 after 2 hrs by Western blot analysis
- Assay type: cell-based
measured-endpoint: pIC50
Convention used: pIC50 is expressed as -log10 of the molar concentration.

// query Lab request: please report pIC50 under test system Hepatocyte growth factor receptor (Homo sapiens) for CN(C[C@@H]1COCCO1)S(=O)(=O)Nc1ccc2ccc3ncc(-c4cnn(C)c4)cc3c(=O)c2c1
// result 7.30

====

Could you please report measured bioavailability for the items listed next?
- assay-details: Oral bioavailability in rat at 4 mg/kg
- Type: ADME, organism-based
- measurement-context: in vivo
Quick note: give the figure in %, leave out the unit.

// query Please give the measured bioavailability for this compound: CNS(=O)(=O)Nc1ccc2ccc3ncc(-c4cnn(C)c4)cc3c(=O)c2c1
// result 33

// query Please give the measured bioavailability for this compound: CS(=O)(=O)Nc1ccc2ccc3ncc(-c4ccccc4)cc3c(=O)c2c1
// result 2

====

- assay-details: Antiproliferative activity against human GTL16 cells after 72 hrs
- measurement-context: GTL 16, 72 h
Could you please report measured IC50 for the items listed next?
Quick note: give the figure in nM, leave out the unit.

// query Please give the measured IC50 for this compound: CN(C[C@@H]1COCCO1)S(=O)(=O)Nc1ccc2ccc3ncc(-c4cnn(C)c4)cc3c(=O)c2c1
// result 440

// query Please give the measured IC50 for this compound: COCC(F)Cn1cc(-c2cnc3ccc4ccc(NS(=O)(=O)N(C)C)cc4c(=O)c3c2)cn1 (racemic)
// result 54

// query Please give the measured IC50 for this compound: CN(Cc1ccccc1)S(=O)(=O)Nc1ccc2ccc3ncc(-c4cnn(C)c4)cc3c(=O)c2c1
// result 50000

// query Please give the measured IC50 for this compound: CN(C)S(=O)(=O)Nc1ccc2ccc3ncc(-c4cnn(CC(=O)N5CCOCC5)c4)cc3c(=O)c2c1
// result 1700

// query Please give the measured IC50 for this compound: Cn1cc(-c2cnc3ccc4ccc(NS(C)(=O)=O)cc4c(=O)c3c2)cn1
// result 1900

====

Could you please report measured IC50 for the items listed next?

// query Lab request: please report IC50 under test system Voltage-gated inwardly rectifying potassium channel KCNH2 (Homo sapiens, UniProt Q12809) for CN(C)S(=O)(=O)Nc1ccc2ccc3ncc(-c4cnn(C)c4)cc3c(=O)c2c1
// result > 30 µM

// query Lab request: please report IC50 under test system Voltage-gated inwardly rectifying potassium channel KCNH2 (Homo sapiens, UniProt Q12809) for CN(Cc1cnccn1)S(=O)(=O)Nc1ccc2ccc3ncc(-c4cnn(C)c4)cc3c(=O)c2c1
// result 7.1 µM

// query Lab request: please report IC50 under test system Voltage-gated inwardly rectifying potassium channel KCNH2 (Homo sapiens, UniProt Q12809) for CN(C[C@H]1COCCO1)S(=O)(=O)Nc1ccc2ccc3ncc(-c4cnn(C)c4)cc3c(=O)c2c1
// result > 30 µM

// query Lab request: please report IC50 under test system Voltage-gated inwardly rectifying potassium channel KCNH2 (Homo sapiens, UniProt Q12809) for CN([C@H]1CCOC1)S(=O)(=O)Nc1ccc2ccc3ncc(-c4cnn(C)c4)cc3c(=O)c2c1
// result > 30 µM

// query Lab request: please report IC50 under test system Voltage-gated inwardly rectifying potassium channel KCNH2 (Homo sapiens, UniProt Q12809) for Cn1cc(-c2cnc3ccc4ccc(NS(C)(=O)=O)cc4c(=O)c3c2)cn1
// result 10.1 µM

// query Lab request: please report IC50 under test system Voltage-gated inwardly rectifying potassium channel KCNH2 (Homo sapiens, UniProt Q12809) for COCCCN(C)S(=O)(=O)Nc1ccc2ccc3ncc(-c4cnn(C)c4)cc3c(=O)c2c1
// result > 30 µM

// query Lab request: please report IC50 under test system Voltage-gated inwardly rectifying potassium channel KCNH2 (Homo sapiens, UniProt Q12809) for CN(Cc1ccccc1)S(=O)(=O)Nc1ccc2ccc3ncc(-c4cnn(C)c4)cc3c(=O)c2c1
// result > 30 µM

// query Lab request: please report IC50 under test system Voltage-gated inwardly rectifying potassium channel KCNH2 (Homo sapiens, UniProt Q12809) for CS(=O)(=O)Nc1ccc2ccc3ncc(-c4ccccc4)cc3c(=O)c2c1
// result 0.29 µM

// query Lab request: please report IC50 under test system Voltage-gated inwardly rectifying potassium channel KCNH2 (Homo sapiens, UniProt Q12809) for CN(C[C@@H]1COCCO1)S(=O)(=O)Nc1ccc2ccc3ncc(-c4cnn(C)c4)cc3c(=O)c2c1
// result > 30 µM

// query Lab request: please report IC50 under test system Voltage-gated inwardly rectifying potassium channel KCNH2 (Homo sapiens, UniProt Q12809) for Cn1cc(-c2cnc3ccc4ccc(NS(N)(=O)=O)cc4c(=O)c3c2)cn1
// result 4.3 µM
